List of melting point values.
Measured attribute: melting point

Molecule | Measured attribute | Observed result
Cc1cnc2[nH]cc(/C=C3\N=C(N4CCCCCC4)NC3=O)c2c1 | melting point | 324 to 326 °C
COc1ccc(C(=O)Nc2ccc(F)c(F)c2)cc1NS(=O)(=O)c1ccc([N+](=O)[O-])cc1 | melting point | 234 to 236 °C
Nc1nc2c([N+](=O)[O-])cc(OC(F)(F)F)cc2s1 | melting point | 260 °C
O=S(=O)(Nc1cccc(CCOCc2csc(-c3ccc(Cl)cc3)n2)c1)C(F)(F)F | melting point | 114 to 116 °C
COc1ccc(N2C(=O)C(O[Si](C(C)C)(C(C)C)C(C)C)C2C=Cc2ccco2)cc1 (centres undefined) | melting point | 104 to 106 °C
CC(=O)Oc1cc(OC(C)=O)c2ccccc2c1OC(C)=O | melting point | 136 to 137 °C
COc1cc2c(cc1Nc1ncc(Cl)c(Nc3cccnc3OC)n1)CCN(CC(=O)N(C)C)CC2 | melting point | 68 to 76 °C
CS(=O)(=O)c1ccc(Oc2c(-c3ccc(S(C)(=O)=O)cc3)cnn(CC(F)(F)F)c2=O)cc1 | melting point | 212 to 213 °C
CCCCN1CCC(CNC(=O)c2cc(Cl)c(N)n3cc(C)nc23)CC1 | melting point | 188 to 191 °C

###

Compound | melting point
O=c1c2cnc(N3CCCCC3)nc2sn1CCc1ccccn1 | 109 to 110 °C
CCCCCCN1CCC(n2nc(-c3c(-c4ccccc4)nn4ccccc34)ccc2=O)CC1 | 106 °C
CC(C)(C)OC(=O)N1CCN(c2ccc(OC[C@@]3(C)Cn4cc([N+](=O)[O-])nc4O3)cc2Cl)CC1 | 207 to 210 °C
O=C(O)CCC1=C2C(=CC(Cl)=CC2(F)Cl)NC1C(=O)O (stereo not given) | 292 to 294 °C
N#CCCn1ccc(NC(N)=NCC(F)(F)F)n1 | 141 to 142 °C
Cc1c(-c2ccccc2)sc2nc(N3CCOCC3)[nH]c(=O)c12 | 300 to 320 °C
O=C(O)CCNC(=O)c1ccc(-c2ccccc2OC2OC(CO)C(O)C(O)C2O)cc1 (stereo not given) | 101 to 104 °C
Brc1ccccc1OCc1ccc2ccccc2n1 | 115 to 117 °C
Cn1cc(-c2ccccc2)c(=O)c(-c2cccc(Br)c2)c1 | 172 °C
Cc1cccc(-c2[nH]c(C(C)C)nc2-c2cccc(-c3cccnc3)c2)n1 | 74 to 77 °C
FCc1cccc(C#CCCc2cnc3cc(F)c(F)cc3n2)n1 | 135 to 138 °C
COC(=O)CCCC=Cc1nn(-c2ccc(F)cc2)c2c1CCC2 | 67 to 68 °C
CCC(c1ccc2[nH]c(C(F)(F)F)nc2c1)n1ccnc1 (stereo not given) | 173 °C
CC1CC(=O)NN=C1c1ccc(NC(=O)C2(C)CC2)cc1 (stereo not given) | 235 to 237 °C
CCc1cc(NC(=O)N2CCN(c3ccsc3)CC2)c(OC)nc1C | 108 to 110 °C
O=C(NCc1ccc(F)cc1)c1nc2n(c(=O)c1OCc1ccccc1)CCN2c1ccccc1 | 199 to 200 °C
CC(C)N(C(=O)CN1C(=O)C(C)(CC(=O)Nc2ccccc2)C(=O)N(c2ccccc2)c2ccccc21)c1ccccc1 (stereo not given) | 228 to 229 °C
CCc1nc(-c2ccc(OCCC3CCN(c4ccc(C)nn4)CC3)cc2)co1 | 124 °C
Cn1nnnc1NC(=O)c1cccc2cccnc12 | 224 to 225 °C
CCC(CC)n1cc(Cl)nc(N2CCc3cc(Br)cc(Cl)c32)c1=O | 156 to 157 °C
